Assign melting point to each entry below.

# melting point (molecule: `Cc1cc(C(=O)O)n(C(C)(C)C)n1` ) is 149 to 153 °C

According to the records, this molecule `O=C(O)/C=C/c1ccc(C(F)(F)F)cc1` displays melting point of 230 to 234 °C

The reported value for `Cc1cc(O)c(C(=O)CC(=O)c2ccccc2)cc1Cl` in terms of melting point is 120 to 123 °C

Reported melting point ( C=C1C(C)C2C(Cc3ccccc3)NC(=O)C23OC(=O)C=CC(=O)CCCC(C)CC=CC3C1O (stereo unspecified) ) = 193 to 195 °C

// melting point value for `COc1ccc(-c2ocnc2C(=O)O)cc1` : 147 to 151 °C

Value of melting point reported for the molecule `O=Cc1scc2c1OCCO2` is 138 to 140 °C

----------
METRIC NAME: melting point

Item: `COc1ccc(N/N=C(\C#N)c2nc(-c3ccccc3)cs2)cc1` | melting point: 150 °C

melting point reading for `CCOC(=O)c1cnn(-c2ccc([N+](=O)[O-])cc2)c1N` : 203 to 204 °C

Looking up `CCOc1ccccc1C(N)=O` , I see its melting point listed as 133 °C

// CC(CC1CC(=O)c2c3c(c4ccccc4c2O1)O[C@@H]1CC(=O)O[C@H]31)O[Si](C)(C)C(C)(C)C (stereo partly specified) : melting point value = 131 to 133 °C

Please fill in: melting point reported for `NNc1ncc(C(=O)OCc2ccc(Cl)cc2)c(C(F)(F)F)n1` = 111 to 113 °C

// melting point value for `Nc1cccc(Oc2ccc(S(=O)(=O)c3ccc(Oc4cccc(N)c4)cc3)cc2)c1` : 132 to 135 °C

----------
METRIC NAME: melting point

`CCOC(=O)C(C(N)=S)=C1NN=C(c2ccc(Cl)cc2)O1` has a reported melting point of 174 to 177 °C

Form: compound = `CC(=O)c1csc(-c2ccc(OC(F)(F)F)cc2)n1` ; melting point = 45.5 to 48 °C

The compound listed as `COC(=O)c1noc(C)c1C(C)=NO` has a reported melting point of 121 to 124 °C

`Cc1n[nH]c(C)c1CCBr` has a reported melting point of 118 to 120 °C

----------
Task for the reader: assign each of the following compounds its reported melting point.

get_value(item= `COC(=O)C1(C(=O)OC)Cc2cccc(OC)c2C(=O)O1` , readout=melting point) returns 88.7 to 89.7 °C

// recorded melting point for `Cc1ccc(C=C(Oc2cccc(C)c2)c2nc3ccccc3s2)cc1` : 137 to 139 °C

Entry `O=C(C=Cc1ccccc1)c1ccc(F)cc1` — recorded melting point = 79 to 80 °C

For record `Cc1oc(C(C)(C)C)cc1C(=O)Cl` the listed melting point is 41 to 44 °C

----------
METRIC NAME: melting point

Measured melting point, `Cc1nc2ccccn2c1C(=O)O` : 140 to 142 °C

Form field melting point, entry `Nc1snnc1-c1ccc(C(F)(F)F)cc1` : 125 to 128 °C

Entry under test: `COc1cccc2c(O)c3ccccc3nc12` . Its melting point was 284 to 287 °C

Per the record, CC(NC(=O)OCc1ccccc1)C(=O)O (racemic) has melting point of 112 to 113 °C

Entry `Nc1nc(-c2ccc(F)c(F)c2)cs1` , melting point reported as 116 to 117 °C

The recorded melting point for `COc1cc(-c2nnc3n2N=C(c2ccccc2)CS3)cc(OC)c1OC` is 197 °C

Lab note: `Cc1ccccc1-n1ncc(C=O)c1C` gave melting point of 99 to 100 °C

Lookup result for `O=C(O)c1c(C(F)(F)F)ccnc1Cl` ; measured melting point: 159 °C

The molecule identified as `Cc1ccc(C=C2C(=O)OC(C)(C)OC2=O)o1` registered its melting point at 93 °C

Reported melting point ( `Nc1cc(F)ccc1F` ) = 14 °C

// melting point value for `CCCc1ccc(O)cc1O` : 82.5 °C

Entry under test: CCCC(O)(CCC)C1(C)CCC(C(=O)O)C(C)(C)O1 (configuration not stated) . Its melting point was 111 to 112 °C

// recorded melting point for `COc1ccc(-c2cc(C(F)(F)F)nc(N)n2)cc1` : 191 to 194 °C

Item: `O=C(Cl)c1cccnc1Oc1ccccc1` | melting point: 90 to 91 °C

The measured melting point associated with `NC1(P(=O)(O)O)CCCC1` reads 274 to 276 °C

Record summary for `CNC(=O)C(F)(F)F` : reported melting point = 51 °C

Recorded result, `CS(=O)(=O)c1nc(Br)c(C#N)c(-c2ccc(Cl)cc2)c1Cl` , melting point: 158 °C

Measured melting point of CC(C)(C)C(=O)OCOC(=O)C1N2C(=O)C(N=CN3CCCCCC3)C2SC1(C)C (configuration not stated) : 119 °C

For this molecule ( `Cc1ccc(-c2cc(C(=O)O)c(C)o2)cc1` ), measured melting point is 230 to 232 °C

get_value(item= `Cc1cc(C(F)(F)F)n2nc(-c3ccccc3)cc2n1` , readout=melting point) returns 174 °C

According to the records, this molecule `O=C1OC2(Cc3ccccc31)C(=O)c1ccccc1C2=O` displays melting point of 205 °C

# melting point (molecule: `O=[N+]([O-])C=Cc1c(F)cccc1Cl` ) is 63 °C

In plain terms, CC1=C(C(=O)OCC(C)C)C(c2ccco2)NC(=O)N1 (configuration not stated) has a documented melting point of 170 to 171 °C

Kindly note the recorded melting point for `NC(=S)Cn1cnc(Cl)c1Cl` , which is 204 to 207 °C

Reported melting point of `c1cc2occc2c(N2CCNCC2)n1` : 58 to 60 °C

The recorded melting point for `Cc1csc2c(Cl)ncnc12` is 124 to 125 °C

For reference, reported melting point for `CCOC(=O)Cc1csc(N)n1` stands at 91 to 95 °C

GET /value?item= `COc1cccc(C=C[N+](=O)[O-])c1OC` &field=melting point returns 83 to 85 °C

Sample COC(=O)CCC(C)C1CCC2C3CCC4CC(=O)CCC4(C)C3CCC12C (configuration not stated) ; melting point observed: 116 to 118 °C

Notebook: `O=C(O)c1cccc(-c2ccccn2)c1` , melting point read as 207 to 209 °C

In plain terms, `CN(C)C(CSS(=O)(=O)c1ccccc1)CSS(=O)(=O)c1ccccc1` has a documented melting point of 83.5 °C

response.value for CCOC(=O)C12C(c3ccccc3OP1(=O)OCC)C1(C(=O)OCC)C2c2ccccc2OP1(=O)OCC (configuration not stated) (field: melting point) = 249 to 251 °C

----------
Provide the reported melting point of each item.

So for `NNC(=O)c1ccccc1OC(F)(F)F` , the logged melting point turned out to be 103 to 105 °C

Form field melting point, entry `OC1(c2ccc(Br)cc2)CCNCC1` : 163 to 168 °C

According to the records, this compound `COc1ccc(C(C=O)C=O)cc1` displays melting point of 178 to 181 °C

Value of measured melting point for the entry `COc1cc(C=CC(=O)O)cc(OC)c1` : 173 to 176 °C

----------
What melting point was measured for each of the following?

The recorded melting point for `COc1ccc2c(CC(=O)O)coc2c1` is 123 to 124 °C

For reference, reported melting point for `O=C(O)c1cccnc1Oc1ccc(F)cc1` stands at 187 to 189 °C

Please fill in: melting point reported for `O=C(O)C(F)(F)C(F)(F)C(F)(F)C(F)(F)C(F)(F)C(F)(F)C(F)(F)C(F)(F)C(F)(F)C(F)(F)C(F)(F)F` = 112 to 114 °C

----------
Threshold 100 °C: melting point strictly smaller gives YES, otherwise NO.

Record `O=C1NC(=S)SC1=Cc1cccc(C=C2SC(=S)NC2=O)c1` : is its melting point strictly below 100 °C?
NO

Record `Cc1ccc(C(c2ccc(Br)cc2)c2ccc(C)o2)o1` : is its melting point strictly below 100 °C?
YES

Is melting point strictly under 100 °C for the entry `CC(=O)Nc1ncc([N+](=O)[O-])s1` ?
NO

Lab log: compare recorded melting point with 100 °C; is it strictly lower for `O=C(O)Cc1ccc(CC(=O)O)cc1` ?
NO

Threshold test, melting point < 100 °C: `CC1=NN(c2ccc(S(=O)(=O)O)cc2)C(=O)C1`
NO

Does the reported melting point of the following compound sit strictly below 100 °C? `CCCCCCCCCCCCCC(CCCCCCCCCC)CCCCCCCCCC`
YES

Does `CC(=O)c1ccc(O)c([N+](=O)[O-])c1` have melting point strictly under 100 °C?
NO

Is melting point of OC1(c2ccccc2)Cc2ccccc21 (centres undefined) strictly below 100 °C?
YES

Does the reported melting point of `Nc1cc(N)c(/C=C/c2ccccc2)c(N)c1C=Cc1ccccc1` stay below 100 °C?
NO

Confirm or reject: melting point of `CCC(CC)(CBr)CBr` lies strictly below 100 °C
YES

A record lists `CN1C(=O)C(=NNc2ccc(Br)cc2)C(=O)N(C)C1=O` . Is its melting point below 100 °C?
NO

# TODO verify melting point < 100 °C strictly for this compound: `O=CCCCCC=O`
YES

Is it true that melting point reported for `C#CC1(OC(N)=O)CCCCC1` is less than 100 °C?
YES

Please indicate whether the reported melting point of `Cc1cc(C=O)cc(C)c1O` is strictly below 100 °C.
NO

Quick check: does `FC(F)C(F)(F)CBr` have melting point under 100 °C?
YES
